- measured.on: Substance-P receptor (Homo sapiens)
- protocol.description: In vitro inhibition of binding of [125I]Bolton-Hunter SP to Tachykinin receptor 1 in human IM-9 cell line at a concentration of 10 nM
- Assay type: cell-based
Listed compounds paired with reported inhibition
Respond numerically; units are % and should not be typed.

// below: answered compounds
{"columns": ["compound", "inhibition [%]"],
 "data": [
  ["COc1ccc(C(=O)CCC(=O)NC(Cc2c[nH]c3ccccc23)CN(Cc2ccccc2OC)C(C)=O)cc1 (centres undefined)", 63],
  ["COc1ccccc1CN(CC(Cc1c[nH]c2ccccc12)NC(=O)COc1ccc(C(C)=O)cc1)C(C)=O (centres undefined)", 68],
  ["COc1ccccc1CN(CC(Cc1c[nH]c2ccccc12)NC(=O)c1ccccc1Cl)C(C)=O (centres undefined)", 0],
  ["COc1cccc(CC(=O)NC(Cc2c[nH]c3ccccc23)CN(Cc2ccccc2OC)C(C)=O)c1 (centres undefined)", 22],
  ["CCOCC(=O)NC(Cc1c[nH]c2ccccc12)CN(Cc1ccccc1OC)C(C)=O (centres undefined)", 4],
  ["COc1ccccc1CC(=O)NC(Cc1c[nH]c2ccccc12)CN(Cc1ccccc1OC)C(C)=O (centres undefined)", 23],
  ["COc1ccc(OCC(=O)NC(Cc2c[nH]c3ccccc23)CN(Cc2ccccc2OC)C(C)=O)cc1 (centres undefined)", 52],
  ["COc1cccc(OCC(=O)NC(Cc2c[nH]c3ccccc23)CN(Cc2ccccc2OC)C(C)=O)c1 (centres undefined)", 3]
]}

Record COc1ccccc1CN(CC(Cc1c[nH]c2ccccc12)NC(=O)CCc1ccccc1)C(C)=O (centres undefined) : what is its inhibition with Substance-P receptor (Homo sapiens)?
20

What about COc1ccccc1CN(CC(Cc1c[nH]c2ccccc12)NC(=O)Cc1ccccc1Cl)C(C)=O (centres undefined) ?
30

What would you report for COc1ccc(CC(=O)NC(Cc2c[nH]c3ccccc23)CN(Cc2ccccc2OC)C(C)=O)cc1 (centres undefined) ?
81

// query: COc1ccc(C(=O)NC(Cc2c[nH]c3ccccc23)CN(Cc2ccccc2OC)C(C)=O)cc1 (centres undefined)
13

Would you kindly repeat that for COc1ccccc1CN(CC(Cc1c[nH]c2ccccc12)NC(=O)COc1ccc(CO)cc1)C(C)=O (centres undefined) ?
87

----------
- measured.on: Substance-P receptor (Homo sapiens, UniProt P25103)
- Sequence (P25103 whole entry): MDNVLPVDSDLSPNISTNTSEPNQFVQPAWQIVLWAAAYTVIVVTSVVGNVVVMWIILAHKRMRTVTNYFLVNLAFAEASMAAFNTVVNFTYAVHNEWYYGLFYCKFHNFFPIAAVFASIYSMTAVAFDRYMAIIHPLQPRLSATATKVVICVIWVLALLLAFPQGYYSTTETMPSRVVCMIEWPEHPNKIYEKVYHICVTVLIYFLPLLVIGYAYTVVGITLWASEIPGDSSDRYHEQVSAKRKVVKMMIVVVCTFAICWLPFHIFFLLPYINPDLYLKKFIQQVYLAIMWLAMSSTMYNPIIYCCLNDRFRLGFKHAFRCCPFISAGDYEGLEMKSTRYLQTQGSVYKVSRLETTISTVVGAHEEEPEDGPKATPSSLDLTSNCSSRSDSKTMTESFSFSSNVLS
- protocol.description: In vitro inhibition of binding of [125I]Bolton-Hunter SP to Tachykinin receptor 1 in human IM-9 cell line at a concentration of 10 nM
- Assay type: cell-based
Classify as follows. Reported inhibition greater than or equal to 20%: True. Reported inhibition below: False.

{"columns": ["compound", "class"],
 "data": [
  ["COc1ccccc1CN(CC(Cc1c[nH]c2ccccc12)NC(=O)COc1ccc(Cl)cc1)C(C)=O (stereo unspecified)", "False"],
  ["COc1ccccc1CN(CC(Cc1c[nH]c2ccccc12)NC(=O)CCC(=O)c1ccc(F)cc1)C(C)=O (stereo unspecified)", "True"],
  ["COc1ccccc1CN(CC(Cc1c[nH]c2ccccc12)NC(=O)Cc1ccc2c(c1)OCCO2)C(C)=O (stereo unspecified)", "True"],
  ["COc1ccccc1CN(CC(Cc1c[nH]c2ccccc12)NC(=O)Cc1ccc(O)cc1)C(C)=O (stereo unspecified)", "True"],
  ["COc1ccccc1CN(CC(Cc1c[nH]c2ccccc12)NC(=O)Cc1ccccc1)C(C)=O (stereo unspecified)", "False"]
]}

Is reported inhibition greater than or equal to 20% here: COc1ccccc1CN(CC(Cc1c[nH]c2ccccc12)NC(=O)c1ccccc1)C(C)=O (stereo unspecified)
False

Try this compound too: COc1ccccc1CN(CC(Cc1c[nH]c2ccccc12)NC(=O)CCC(=O)c1ccc(Cl)cc1)C(C)=O (stereo unspecified)
True

And the next one, COc1ccccc1CN(CC(Cc1c[nH]c2ccccc12)NC(=O)CSc1ccccn1)C(C)=O (stereo unspecified) ?
True

Lookup COc1ccccc1CN(CC(Cc1c[nH]c2ccccc12)NC(=O)COc1ccc(O)cc1)C(C)=O (stereo unspecified)
True

Now the same for COc1ccccc1CN(CC(Cc1c[nH]c2ccccc12)NC(=O)COc1ccccc1OC)C(C)=O (stereo unspecified)
True
